Sourced from PubChem BioAssay

biological target: NADPH oxidase 5 (Homo sapiens) (UniProt Q96PH1); test: NOX5-dependent H2O2 signal modulators, primary screen, NOX inhibitor project, cell-based, HEK293-NOX5, Amplex Red fluorescence (AID 1161); settings: HEK293-NOX5, ionomycin, 45 min, higher = more signal
Sequence (Q96PH1 whole entry, looked up): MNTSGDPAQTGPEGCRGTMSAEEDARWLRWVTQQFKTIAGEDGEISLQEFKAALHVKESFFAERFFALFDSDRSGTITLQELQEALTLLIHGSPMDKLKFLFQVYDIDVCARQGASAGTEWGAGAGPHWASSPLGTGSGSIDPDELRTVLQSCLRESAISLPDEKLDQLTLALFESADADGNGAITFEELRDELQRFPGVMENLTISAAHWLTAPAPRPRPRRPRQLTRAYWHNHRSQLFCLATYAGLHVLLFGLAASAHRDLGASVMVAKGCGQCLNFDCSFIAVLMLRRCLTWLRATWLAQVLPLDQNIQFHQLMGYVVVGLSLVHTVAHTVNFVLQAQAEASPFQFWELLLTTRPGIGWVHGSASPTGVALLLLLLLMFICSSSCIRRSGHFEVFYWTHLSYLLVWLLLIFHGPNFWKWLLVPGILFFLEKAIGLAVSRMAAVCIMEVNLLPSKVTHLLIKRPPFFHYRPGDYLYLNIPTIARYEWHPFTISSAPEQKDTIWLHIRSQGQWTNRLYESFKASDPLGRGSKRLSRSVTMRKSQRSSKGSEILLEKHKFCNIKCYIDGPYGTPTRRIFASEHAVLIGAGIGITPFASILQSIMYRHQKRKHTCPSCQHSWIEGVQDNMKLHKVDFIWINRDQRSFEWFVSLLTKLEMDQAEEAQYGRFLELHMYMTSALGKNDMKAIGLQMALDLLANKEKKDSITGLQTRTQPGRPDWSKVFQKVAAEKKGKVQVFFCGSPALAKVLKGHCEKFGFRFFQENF
Outcome label depends on z-score relative to -0.8: at/above gives Satisfied, below gives Not satisfied.

INSERT INTO assay_data (molecule, class_name) VALUES
  ('C[C@@H]1C=CCC(=O)OC[C@H](C)C(=O)N[C@@H](C)C(=O)OC1', 'Satisfied');

Continue with the molecule presented below.
Assess whether reported z-score for `[N-]=[N+]=NCc1ccccc1[C@@H]1OC(c2ccc(OCCCO)cc2)=N[C@]1(Cc1ccccc1)C(=O)N1CCOCC1` sits at -0.8 or higher. Not satisfied

---

The following compounds are listed with their measured composite z-score values.
experiment: small-molecule microarray binders of probe aCHRDL2, primary screen, biochemical, biotinylated probe, 635/667 nm fluorescence (AID 1100); settings: higher = more signal
The response must contain the number and no unit.

Completed entries (count: 10):
INSERT INTO measurements (compound, reading) VALUES
  ('CCc1cc2c(nc1CC)CCN(CCC(C)=NO[C@@H](C)c1cc(-c3c(C)cc(C)cc3C)no1)C2', -0.286),
  ('COC(=O)[C@@H]1N=C(c2ccc(OCCCO)cc2)O[C@@H]1c1ccccc1N=[N+]=[N-]', 1.37),
  ('CC(C)CON=C1[C@H]2CCn3c(=O)n(-c4ccccc4)c(=O)n3[C@H]2[C@H](O)[C@@H]2O[C@H]12', -0.481),
  ('COc1ccc([Si](C)(C)[C@H]2[C@H](CC(=O)N3CCC[C@H]3CO)O[C@@]3(C(=O)N(Cc4cccc(N5C(=O)COc6ccccc65)c4)c4ccccc43)[C@@H]2C)cc1', -0.364),
  ('NC(=O)NCC#Cc1ccc2c(c1)[C@]1(C(=O)N2)[C@H](c2ccc(O)cc2)N2[C@H](c3ccccc3)[C@H](c3ccccc3)OC(=O)[C@H]2[C@@H]1C(=O)N1CCCCCCC1', 1.08),
  ('C=C(/C(=C/C[C@H](OC(=O)c1ccncc1)c1ccc(OCCO)cc1)c1cnc2ccccc2c1)C(C)C', -0.163),
  ('CCCCCCc1nc(CCCc2cc3c(c(CCCCCC)n2)[Si](C(C)C)(C(C)C)O[C@H]3c2ccccc2)cc2c1[Si](C(C)C)(C(C)C)O[C@H]2c1ccccc1', -0.21),
  ('CC(CCN1CCc2nc(-c3ccccc3)c(-c3ccccc3)cc2C1)=NO[C@@H](C)c1cn([C@H](CO)Cc2ccccc2)nn1', 0.119),
  ('O=C1C[C@]2(c3ccc([N+](=O)[O-])cc3)C(=O)N(CCN3CCOCC3)c3cc(CO)ccc3[C@H]2N1CC12CC3CC(CC(C3)C1)C2', 0.793),
  ('N#Cc1ccc(NN2C(C(O)c3cccc4ccccc34)C=CC3C(=O)N(c4ccccc4)C(=O)C32)cc1 (centres undefined)', 1.14);

What value of measured composite z-score is listed for `COCC1=C2[C@@H](CCc3ccccc3)OB(O)C[C@@H]2n2c(=O)n(-c3ccccc3)c(=O)n2C1` ? -0.448

What value of measured composite z-score is listed for `COc1ccc(O[C@H]2C=C[C@@H](c3ccccc3)O[C@@H]2CON=C[C@@H](C)[C@H](OCc2ccccc2)C(C)C)cc1` ? -0.17

What value of measured composite z-score is listed for `C=CCN1C(=O)[C@]2(O[C@H](CCn3cc(CCO)nn3)[C@@H]([Si](C)(C)c3ccc(OC)cc3)[C@@H]2C)c2cc(N3CCOC3=O)ccc21` ? 0.223

What value of measured composite z-score is listed for `COCCCNC(=O)[C@@]1(C)c2ccccc2C(=O)N(Cc2ccc(OC(F)(F)F)cc2)[C@H]1c1ccc(CO)cc1` ? 0.973
